system: A431 cells; experiment: Inhibition of A431 cell proliferation (CellTiter-Glo); assay type: cell-based; details: Homo sapiens, A-431, 72 h, read-out: EGFR IC50 (nM) A431
// returns no unless IC50 is strictly below 200 nM, in which case yes

Given the entry C=CC(=O)Nc1cc(Nc2nccc(-c3cn(C)c4cc(C#N)ccc34)n2)c(OC(F)F)cc1N(C)CCN(C)C [Example 9] , would its reported IC50 be below 200 nM?
no

For C=CC(=O)Nc1cc(Nc2nccc(-c3cn(C)c4ccccc34)n2)c(OC(F)F)cc1N1CCN(C)CC1 [Example 2] then?
no

Next entry: C=CC(=O)Nc1cc(Nc2nccc(-n3nc(C)c4ccc(OC)cc43)n2)c(OC)cc1N(C)CCN(C)C [Example 54]
yes

Now this one: C=CC(=O)Nc1cc(Nc2nccc(-c3cn(C)c4c(C5CC5)cccc34)n2)c(OC)cc1N(C)CCN(C)C [Example 91]
no

And what about the molecule C=CC(=O)Nc1cc(Nc2nccc(-n3nc(C)c4cc(OC)c(OC)cc43)n2)c(OC)cc1N(C)CCN(C)C [Example 53] ?
no

Field entry: C#CCn1cc(-c2ccnc(Nc3cc(NC(=O)C=C)c(N(C)CCN(C)C)cc3OC)n2)c2ccccc21 [Example 140]
no

Please give the result for C=CC(=O)Nc1cc(Nc2ncc(Cl)c(-c3cn(C4CC4)c4ccccc34)n2)c(OC)cc1N(C)CCN(C)C [Example 100] too.
no

Repeat with C=CC(=O)Nc1cc(Nc2nccc(-n3ncc4cc(C#N)ccc43)n2)c(OC)cc1N(C)CCN(C)C [Example 50]
no

Same question for C=CC(=O)Nc1cc(Nc2ncc(C(F)(F)F)c(-n3nc(C)c4cc(OC)ccc43)n2)c(OC)cc1N(C)CCN(C)C [Example 107] please.
yes

And what about the molecule C=CC(=O)Nc1cc(Nc2ncc(C(F)(F)F)c(-n3nc(C)c4cc(C#N)ccc43)n2)c(OC)cc1N(C)CCN(C)C [Example 106] ?
no

----------
Tested on: A431 cells
Assay: Inhibition of A431 cell proliferation (CellTiter-Glo)
Type: cell-based
Conditions: Homo sapiens, A-431, 72 h, read-out: EGFR IC50 (nM) A431
Experimental: 4. Experiment on the Inhibition of A431 Cell Proliferation In this experiment, the inhibitory effect of the compounds on A431 cell proliferation was tested by a CellTiter-Glo method, and the half maximal inhibitory concentration (IC50) of the compounds on the activity of cell proliferation was determined. […] 4) The chemiluminescence signal values of each plate were determined by a microplate reader. 5) The inhibition rates were calculated according to the chemiluminescence signal values. […]
Below, each entry is listed alongside its reported IC50.
# value in nM; strip the unit string

[
  {
    "smiles.structure": "C=CC(=O)Nc1cc(Nc2nccc(-n3ncc4cc(OCC)ccc43)n2)c(OC)cc1N(C)CCN(C)C",
    "units.symbol": "nM",
    "numeric.value": 887
  },
  {
    "smiles.structure": "C=CC(=O)Nc1cc(Nc2nccc(-n3nc(C4CC4)c4ccccc43)n2)c(OC)cc1N(C)CCN(C)C",
    "units.symbol": "nM",
    "numeric.value": 406
  },
  {
    "smiles.structure": "C=CC(=O)Nc1cc(Nc2nccc(-c3cn(S(=O)(=O)N(C)C)c4ccccc34)n2)c(OC(F)F)cc1N(C)CCN(C)C",
    "units.symbol": "nM",
    "numeric.value": 70.8
  },
  {
    "smiles.structure": "C=CC(=O)Nc1cc(Nc2nccc(-n3cnc4ccccc43)n2)c(OC)cc1N(C)CCN(C)C",
    "units.symbol": "nM",
    "numeric.value": 115
  },
  {
    "smiles.structure": "C=CC(=O)Nc1cc(Nc2nccc(-c3cn4c5c(cccc35)CCC4)n2)c(OC)cc1N(C)CCN(C)C",
    "units.symbol": "nM",
    "numeric.value": 385
  }
]

What measured IC50 is associated with C=CC(=O)Nc1cc(Nc2ncc(C(F)(F)F)c(-n3cnc4cc(OC)ccc43)n2)c(OC)cc1N(C)CCN(C)C on A431 cells?
321

One more compound: C=CC(=O)Nc1cc(Nc2nccc(-c3cn(S(=O)(=O)N(C)C)c4ccccc34)n2)c(OC)cc1N(C)CCN(CC)CC
98.6

And then C=CC(=O)Nc1cc(Nc2ncc(C(F)(F)F)c(-n3nc(CC)c4cc(C#N)ccc43)n2)c(OC)cc1N(C)CCN(C)C , what is it?
199

Also, C=CC(=O)Nc1cc(Nc2ncc(C(F)(F)F)c(-n3nc(C4CC4)c4cc(OC)ccc43)n2)c(OC)cc1N(C)CCN(C)C please.
122

Follow-up item: C=CC(=O)Nc1cc(Nc2nccc(-n3ncc4ccccc43)n2)c(OC)cc1N(C)CCN(C)C
339

C=CC(=O)Nc1cc(Nc2ncc(C(F)(F)F)c(-n3ncc4cc(OC)ccc43)n2)c(OC)cc1N(C)CCN(C)C ?
128

Here is the next compound: C=CC(=O)Nc1cc(Nc2nccc(-c3cn(C)c4cc(OC)ccc34)n2)c(OC)cc1N(C)CCN(C)C
93.2

----------
target: exon 20 T790M mutant-type EGFR enzyme (Homo sapiens, UniProt P00533, T790M); assay: Enzymologic experiment of T790M mutant-type EGFR (TR-FRET); assay type: biochemical; conditions: T790M EGFR enzyme, TR-FRET, ATP 1 to 10 uM
Sequence (P00533 25-1210 T790M): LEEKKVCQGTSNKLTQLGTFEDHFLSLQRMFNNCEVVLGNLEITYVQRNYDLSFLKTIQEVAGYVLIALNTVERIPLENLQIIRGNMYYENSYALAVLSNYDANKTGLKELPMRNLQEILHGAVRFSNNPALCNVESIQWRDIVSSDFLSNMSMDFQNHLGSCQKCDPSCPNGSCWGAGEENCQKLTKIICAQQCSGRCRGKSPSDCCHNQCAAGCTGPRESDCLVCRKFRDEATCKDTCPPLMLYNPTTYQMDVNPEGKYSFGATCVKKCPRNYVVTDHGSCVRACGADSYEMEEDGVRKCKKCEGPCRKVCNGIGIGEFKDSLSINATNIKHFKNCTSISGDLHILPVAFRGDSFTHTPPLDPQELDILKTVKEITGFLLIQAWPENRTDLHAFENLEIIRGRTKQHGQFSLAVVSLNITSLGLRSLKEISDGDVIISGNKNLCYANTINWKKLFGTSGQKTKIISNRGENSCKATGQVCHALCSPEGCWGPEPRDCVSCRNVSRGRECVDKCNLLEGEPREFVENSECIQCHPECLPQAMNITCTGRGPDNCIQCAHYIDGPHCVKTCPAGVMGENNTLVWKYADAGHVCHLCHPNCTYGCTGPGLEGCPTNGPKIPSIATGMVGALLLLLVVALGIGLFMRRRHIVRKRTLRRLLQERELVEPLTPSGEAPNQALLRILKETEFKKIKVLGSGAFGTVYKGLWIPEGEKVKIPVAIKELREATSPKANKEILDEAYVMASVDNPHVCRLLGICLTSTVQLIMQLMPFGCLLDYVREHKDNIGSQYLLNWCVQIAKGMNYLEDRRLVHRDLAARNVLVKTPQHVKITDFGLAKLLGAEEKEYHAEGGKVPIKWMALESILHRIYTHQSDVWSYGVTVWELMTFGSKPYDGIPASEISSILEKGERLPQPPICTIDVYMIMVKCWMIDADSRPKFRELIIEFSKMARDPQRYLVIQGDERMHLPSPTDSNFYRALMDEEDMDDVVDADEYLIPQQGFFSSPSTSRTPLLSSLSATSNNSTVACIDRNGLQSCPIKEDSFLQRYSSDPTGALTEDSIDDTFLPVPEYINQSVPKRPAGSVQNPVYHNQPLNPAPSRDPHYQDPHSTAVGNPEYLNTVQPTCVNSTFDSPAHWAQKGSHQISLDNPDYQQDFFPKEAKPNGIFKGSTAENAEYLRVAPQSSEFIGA
IC50 values, listed per item
Field format: number, assumed nM, no unit text.

[
  {
    "compound": "C=CC(=O)Nc1cc(Nc2nccc(-c3cn(C)c4ccccc34)n2)c(OC(F)F)cc1N(C)CCN(C)C [Example 1]",
    "IC50, nM": 0.15
  },
  {
    "compound": "C=CC(=O)Nc1cc(Nc2nccc(-c3cn(S(=O)(=O)N(C)C)c4ccccc34)n2)c(OC)cc1N(C)CCN(CC)CC [Example 103]",
    "IC50, nM": 0.24
  },
  {
    "compound": "C=CC(=O)Nc1cc(Nc2nccc(-c3c[nH]c4c(OC)cccc34)n2)c(OC)cc1N(C)CCN(C)C [Example 94]",
    "IC50, nM": 0.71
  }
]

Pending compound:
Please give the measured IC50 for this compound: C=CC(=O)Nc1cc(Nc2ncc(Cl)c(-n3nc(C4CC4)c4cc(OC)ccc43)n2)c(OC)cc1N(C)CCN(C)C [Example 115]
0.37
